# System: SN12C renal
# assay explanation: NCI-60 one-dose screen, 48 h
# details: 10 µM unless noted
This is part of a sample that, as a whole, favours compounds with a hit. Of some 83,000 tested, about 20% had one in any assay. Calls of active or inactive are those of the source. How the source made its calls: active means growth percent below 10; inactive means the rest.
Outcome field: choose from 1 = active, -1 = inactive

Recorded results for 5 compounds are shown here.
NC(=O)c1c(NC(=O)c2ccccc2)sc2c1CCC(=O)C2 = -1
O=S(=O)(NCCCNc1nccc(-c2c(-c3ccc(F)c(O)c3)nc3occn23)n1)c1ccccc1 = -1
N#Cc1cccc(F)c1 = -1
CCC(=C(c1ccc(OCCN2CCCC2)cc1)c1ccc(OCCN2CCCC2)cc1)c1ccc(Cl)cc1 = 1
O=C(Nc1nn(-c2ccc(Cl)cc2Cl)nc1-c1ccccc1)c1ccccc1 = -1

In: Tell me the assay call for Cn1cccc1C(=O)C1C(c2cccc([N+](=O)[O-])c2)C2C3CCCCC3CN2C12C(=O)Nc1ccc(Cl)cc12 (stereo not drawn) please.
Out: -1

In: For CCn1c(=S)[nH]c2c(=O)n(C)c(=O)n(C)c21 , which call appears in the assay record?
Out: -1

In: // return assay outcome for COc1cc(N2C(=O)[C@H](O)C2c2ccc(SC)cc2)cc(OC)c1OC (stereo partly drawn)
Out: -1
